Each record here notes measured MFI.
Target: HuTCR Vb17 × Va12 (SKW3-2) (human)
Sequence (A0A075B6N1 22-114): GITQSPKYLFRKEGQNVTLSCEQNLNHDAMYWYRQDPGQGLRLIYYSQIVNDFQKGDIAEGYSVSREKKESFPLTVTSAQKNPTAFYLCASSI
Assay: flow cytometry on SKW3-2 cells
outcome measure: MFI (MFI)

[[record]]
binder = "28B2A4 (antibody, IgG2a, V domains shown) VH: EVQLQESGPELVKPGASVKMSCKASGYTFTDDNMHWVKQSHGKSLEWIGYINPNNNHTNYNQKFKGKATLTVNKSSSTAYMELRSLTSEDSAVYFCARSTVVPFYAMDYWGQGTSVTVSS VL: DIQMTQSPASLSMAIGEKVTIRCITITDIDDDMNWYQQKPGEPPKLLFSEGNTLRPGVPSRFSSSGYGSDFAFTIENMLSEDVADYYCLQSDNLPLTFGGGTKLEIK"
outcome_measure = "MFI"
observed_measurement = 53800

[[record]]
binder = "28B2F5 (antibody, IgG2a, V domains shown) VH: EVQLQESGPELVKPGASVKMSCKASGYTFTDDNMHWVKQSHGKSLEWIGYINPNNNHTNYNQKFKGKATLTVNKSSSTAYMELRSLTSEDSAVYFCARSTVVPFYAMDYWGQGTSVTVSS VL: DIKMTQSPASLSMAIGEKVTIRCITITDIDDDMNWYQQKPGEPPKLLFSEGNTLRPGVPSRFSSSGYGSDFAFTIENMLSEDVADYYCLQSDNLPLTFGAGTKLELK"
outcome_measure = "MFI"
observed_measurement = 36600

[[record]]
binder = "23A9F7 (antibody, V domains shown) VH: EVQLQESGPGLVKPSQSLSLTCSVTGYSITSGYYWNWIRQFLGNKLEWMGYITYDGSNNYNPSLKDRISITRDTSKNQFFLNLNSVTTDDTATYYCARGGGYVPVWGTGTTVTVSS VL: DVQMTQSPAFLSVSPGERVSFSCRASQNIGTSIHWYQQRTNGSPRLLIKYASESISGIPSRFSGSGSGTDFTLSINSVESEDFADYYCHQSHNWPTTFGAGTKLELK"
outcome_measure = "MFI"
observed_measurement = 3400

[[record]]
binder = "23A9C10 (antibody, V domains shown) VH: EVQLQESGPGLVKPSQSLSLTCSVTGYSITSGYYWNWIRQFLGNKLEWMGYITYDGSNNYNPSLKDRISITRDTSKNQFFLNLNSVTTDDTATYYCARGGGYVPVWGTGTTVTVSS VL: DIQMTQSPAFLSVSPGERVSFSCRASQNIGTSIHWYQQRTNGSPRLLIKYASESISGIPSRFSGSGSGTDFTLSINSVESEDFADYYCHQSHNWPTTFGAGTKLELK"
outcome_measure = "MFI"
observed_measurement = 3210

[[record]]
binder = "21G11D5 (antibody, V domains shown) VH: EVQLQESGPDLKKPGETVKISCKASGYTFTTYGMNWVKQAPGKGLKWMGYLNTYSGVSTYADDFKGRFAFSLETSANTAYLQINNLRNDDTATYFCARWGNYGAMDYWGQGTSVTVSS VL: DIVMTQSPLSLPVSLGDQASISCRSSQSIVRSNGFTYLEWYLQKPGQSPELLIYKVSNRFSGVPDRFSGSGSGTDFTLKISRVEAEDLGVYYCFQSSHVPRTFGGGTKLEIK"
outcome_measure = "MFI"
observed_measurement = 56300


Where these numbers come from: patent US20250092134A1
